- measurement_description: Stability indicating HPLC assay and related substances on storage (Example 3)
- Assay type: physicochemical
- cond: 3 months, 25° C./60% RH
I'd appreciate it if you could supply Total Related Substances values for the items below.
The figure you give is taken to be in %; do not add the unit.

Sure, the documented Total Related Substances for CN1CC[C@]23c4c5ccc(O)c4O[C@H]2[C@@H](O[C@@H]2O[C@H](C(=O)O)[C@@H](O)[C@H](O)[C@H]2O)C=C[C@H]3[C@H]1C5.Cl [Morphine-6-glucuronide hydrochloride] is 9.52

Sure, the documented Total Related Substances for CN1CCC23c4c5ccc(O)c4OC2C(OC2OC(C(=O)O)C(O)C(O)C2O)C=CC3C1C5.O=P(O)(O)O (stereo not drawn) [Morphine-6-glucuronide phosphate] is 2.31

Sure, the documented Total Related Substances for CN1CCC23c4c5ccc(O)c4OC2C(OC2OC(C(=O)O)C(O)C(O)C2O)C=CC3C1C5.CN1CCC23c4c5ccc(O)c4OC2C(OC2OC(C(=O)O)C(O)C(O)C2O)C=CC3C1C5.O=C(O)C=CC(=O)O (stereo not drawn) [Morphine-6-glucuronide fumarate] is 1.90
